# assayed target: T1, BsoBI restriction endonuclease (UniProt P70985 P70985:1-323)
# T1 sequence: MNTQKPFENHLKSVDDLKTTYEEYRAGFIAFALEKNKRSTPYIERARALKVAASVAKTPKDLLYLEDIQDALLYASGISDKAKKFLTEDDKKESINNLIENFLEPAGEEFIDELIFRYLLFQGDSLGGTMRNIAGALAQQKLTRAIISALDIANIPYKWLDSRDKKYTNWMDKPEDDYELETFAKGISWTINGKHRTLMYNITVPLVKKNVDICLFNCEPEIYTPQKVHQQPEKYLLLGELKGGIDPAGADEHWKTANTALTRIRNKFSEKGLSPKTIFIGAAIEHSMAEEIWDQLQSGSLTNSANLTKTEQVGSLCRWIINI
# test summary: filter; 4 mM CaCl2, 100 mM NaCl, pH 7.5, room temp; ±1.2
# assay conditions: tags: untagged, expressed from pRRS-bsoBIR in E. coli ER2683; chain copies: 2 inferred; label: 33P 5' end
parameter: Kd

>>> data_value("S2 (CCCGGG) (dsDNA) DNA 1: GAGTGTTATGGGTAGCCCGGGTGAAGTGGGAATATC DNA 2: GATATTCCCACTTCACCCGGGCTACCCATAACACTC")
"6.6 pM"
